Value source: ChEMBL document CHEMBL1140112

Tested on: Rattus norvegicus
Experimental Details: Iron-clearing efficiency in non-iron-overloaded Sprague-Dawley rat at 300 umol/kg, po after 24 hrs relative to control
Type: functional
So basically, if Activity comes in under 6% it's T, and if it's 6% or more it's F.

Incoming: is_below(Activity, 6%) for C[C@]1(C(=O)[O-])CSC(c2ccc(O)cc2O)=N1.[Na+] [DEFERITRIN SODIUM] ?
Outgoing: T

Incoming: Does CCCCCCCCOc1cc(O)c(C2=N[C@@](C)(C(=O)[O-])CS2)cc1OCCCCCCCC.[Na+] have Activity strictly under 6%?
Outgoing: T

Incoming: Please determine if CCCCCCCCOc1ccc(O)c(C2=N[C@@](C)(C(=O)[O-])CS2)c1.[Na+] is below 6% in terms of Activity.
Outgoing: T

Incoming: Say whether its Activity is strictly beneath 6%. Entry: COc1ccc(C2=N[C@@](C)(C(=O)[O-])CS2)c(O)c1.[Na+]
Outgoing: F

Incoming: Determine whether this molecule shows Activity lower than 6% (ties excluded): CCOc1ccc(C2=N[C@@](C)(C(=O)[O-])CS2)c(O)c1.[Na+]
Outgoing: F

----------
Experimental Details: Apparent partition coefficient, log P at pH 7.4 by shake flask method
Assay type: physicochemical
Measurement Setup: octanol/water, read-out: LogD7.4
Measured Attribute: logD
# respond with the number and nothing more

C[C@]1(C(=O)[O-])CSC(c2cc(O)ccc2O)=N1.[Na+] | -1.14

Please turn your attention to the following entry.
Looking up COc1ccc(O)c(C2=N[C@@](C)(C(=O)[O-])CS2)c1.[Na+] , I found its logD recorded as -0.61

----------
Here, each record is paired with measured LogD7.4 data.
Experimental Details: Apparent partition coefficient, log P at pH 7.4 by shake flask method
Format: physicochemical
Measurement Setup: octanol/water
// no unit, no text: just the number

Answered cases to consult:
CCCCCCCCOc1ccc(C2=N[C@@](C)(C(=O)[O-])CS2)c(O)c1.[Na+] | 1.53
CCCCOc1ccc(C2=N[C@@](C)(C(=O)[O-])CS2)c(O)c1.[Na+] | 1.02
CCCCCCCCOc1ccc(O)c(C2=N[C@@](C)(C(=O)[O-])CS2)c1.[Na+] | 1.56
CCOc1ccc(C2=N[C@@](C)(C(=O)[O-])CS2)c(O)c1.[Na+] | -0.04
CCCCOc1ccc(O)c(C2=N[C@@](C)(C(=O)[O-])CS2)c1.[Na+] | 0.94

Consider the additional compound presented here.
// CCCCCCCCOc1cc(O)c(C2=N[C@@](C)(C(=O)[O-])CS2)cc1OCCCCCCCC.[Na+] : LogD7.4 value = 2.05

----------
System: Rattus norvegicus
Experimental Details: Iron-clearing efficiency in non-iron-overloaded Sprague-Dawley rat assessed as urine iron excretion at 300 umol/kg, po relative to control
Format: functional
Measured Attribute: Activity (%)
Respond with the bare value in %.

COc1ccc(C2=N[C@@](C)(C(=O)[O-])CS2)c(O)c1.[Na+] | 2
CCCCCCCCOc1ccc(C2=N[C@@](C)(C(=O)[O-])CS2)c(O)c1.[Na+] | 6

CCCCCCCCOc1ccc(O)c(C2=N[C@@](C)(C(=O)[O-])CS2)c1.[Na+] on Rattus norvegicus gives Activity = 3

Form: item COc1ccc(O)c(C2=N[C@@](C)(C(=O)[O-])CS2)c1.[Na+] ; test system Rattus norvegicus; Activity: 5

Reported Activity (Rattus norvegicus) for entry CCOc1ccc(C2=N[C@@](C)(C(=O)[O-])CS2)c(O)c1.[Na+] is 0

Recorded Activity for CCCCOc1ccc(O)c(C2=N[C@@](C)(C(=O)[O-])CS2)c1.[Na+] on Rattus norvegicus was 1

For the compound CCCCOc1ccc(C2=N[C@@](C)(C(=O)[O-])CS2)c(O)c1.[Na+] , the measured Activity on Rattus norvegicus was 2

Assay Rattus norvegicus, sample C[C@]1(C(=O)[O-])CSC(c2cc(O)ccc2O)=N1.[Na+] , Activity read: 1

Record for COCCOCCOCCOc1ccc(C2=N[C@@](C)(C(=O)[O-])CS2)c(O)c1.[Na+] under target or system Rattus norvegicus: Activity reported as 10

// returns Activity for C[C@]1(C(=O)[O-])CSC(c2ccc(O)cc2O)=N1.[Na+] [DEFERITRIN SODIUM] with Rattus norvegicus; value = 0

----------
System: Rattus norvegicus
Experimental Details: Iron-clearing efficiency in non-iron-overloaded Sprague-Dawley rat at 300 umol/kg, po after 24 hrs relative to control
Format: functional
As shown below, each of these molecules has a reported Activity value.
# output: bare number, implied unit %

CCCCOc1ccc(O)c(C2=N[C@@](C)(C(=O)[O-])CS2)c1.[Na+] | 21
CCCCOc1ccc(C2=N[C@@](C)(C(=O)[O-])CS2)c(O)c1.[Na+] | 13.1
CCCCCCCCOc1ccc(C2=N[C@@](C)(C(=O)[O-])CS2)c(O)c1.[Na+] | 6.4

Looking up C[C@]1(C(=O)[O-])CSC(c2cc(O)ccc2O)=N1.[Na+] , I found its Activity recorded as 1

response.value for COCCOCCOCCOc1ccc(C2=N[C@@](C)(C(=O)[O-])CS2)c(O)c1.[Na+] (field: Activity) = 5.5

get_value(item= COc1ccc(O)c(C2=N[C@@](C)(C(=O)[O-])CS2)c1.[Na+] , readout=Activity) returns 6.3
